Recorded inhibition, one value per entry.
# target.desc: Tyrosine-protein kinase Srms (Homo sapiens)
# test.parameters: at 0.1 µM
measured.metric: inhibition (%)

>  <compound.string>
Cc1cccc(Nc2ncc(-c3ccccc3)o2)c1

>  <target.desc>
Tyrosine-protein kinase Srms (Homo sapiens)

>  <measured>
0.16

$$$$
>  <compound.string>
CCNC(=O)O[C@H]1CN[C@H](C#Cc2cc3ncnc(Nc4ccc(OCc5cccc(F)c5)c(Cl)c4)c3s2)C1

>  <target.desc>
Tyrosine-protein kinase Srms (Homo sapiens)

>  <measured>
-0.91

$$$$
>  <compound.string>
CNC(=O)c1cncc(/C=C/c2ccccc2Cl)c1

>  <target.desc>
Tyrosine-protein kinase Srms (Homo sapiens)

>  <measured>
1.76

$$$$
>  <compound.string>
CS(=O)(=O)CCNCc1coc(-c2ccc3ncnc(Nc4ccc(OCc5ccccc5)cc4)c3c2)c1

>  <target.desc>
Tyrosine-protein kinase Srms (Homo sapiens)

>  <measured>
3.44

$$$$
>  <compound.string>
Cc1ccc(O)cc1Nc1ccnc2cc(-c3ccccn3)ccc12

>  <target.desc>
Tyrosine-protein kinase Srms (Homo sapiens)

>  <measured>
9.32

$$$$
>  <compound.string>
COc1ccc(-c2cc3c(N)ncnc3o2)cc1

>  <target.desc>
Tyrosine-protein kinase Srms (Homo sapiens)

>  <measured>
1.52

$$$$
>  <compound.string>
COc1cc(N2CCN(C(C)C)CC2)ccc1Nc1nc(Nc2ccc(F)cc2C(N)=O)c2cc[nH]c2n1

>  <target.desc>
Tyrosine-protein kinase Srms (Homo sapiens)

>  <measured>
1.36

$$$$
>  <compound.string>
COc1ccc2[nH]c3c4[nH]c5ccc(OC)cc5c4c4c(c3c2c1)C(=O)NC4=O

>  <target.desc>
Tyrosine-protein kinase Srms (Homo sapiens)

>  <measured>
3.34

$$$$
>  <compound.string>
Clc1ccc(-c2nn3ncccc3c2-c2ccnc(Nc3ccccc3)n2)cc1

>  <target.desc>
Tyrosine-protein kinase Srms (Homo sapiens)

>  <measured>
1.99

$$$$
>  <compound.string>
CCN(CC)S(=O)(=O)c1ccc(OC)c(Nc2ncc(-c3ccccc3)o2)c1

>  <target.desc>
Tyrosine-protein kinase Srms (Homo sapiens)

>  <measured>
1.97

$$$$
>  <compound.string>
CCn1c(-c2nonc2N)nc2c(C#CC(C)(C)O)nc(OC[C@H](N)c3ccccc3)cc21

>  <target.desc>
Tyrosine-protein kinase Srms (Homo sapiens)

>  <measured>
2.09

$$$$
>  <compound.string>
CCCN(CCS(C)(=O)=O)Cc1ccc(-c2ccc3ncnc(Nc4ccc(OCc5cccc(F)c5)c(Cl)c4)c3c2)o1

>  <target.desc>
Tyrosine-protein kinase Srms (Homo sapiens)

>  <measured>
1.1

$$$$
>  <compound.string>
c1ccc(COc2ccc(Nc3ncnc4ccc(-c5ccco5)cc34)cc2)cc1

>  <target.desc>
Tyrosine-protein kinase Srms (Homo sapiens)

>  <measured>
0.68

$$$$
>  <compound.string>
CN(C)CCOc1ccc(-c2nc(-c3ccncc3)c(-c3ccc4c(c3)CC/C4=N\O)[nH]2)cc1

>  <target.desc>
Tyrosine-protein kinase Srms (Homo sapiens)

>  <measured>
-1.81

$$$$
>  <compound.string>
COc1ccc(CNC(=O)c2ccc(-c3cc(-c4nnc(C)o4)ccc3C)cc2)cc1

>  <target.desc>
Tyrosine-protein kinase Srms (Homo sapiens)

>  <measured>
3.8

$$$$
>  <compound.string>
CC(C)(CO)CNC(=O)c1ccc2c(c1)/C(=N/Nc1ccc(S(N)(=O)=O)cc1)C(=O)N2

>  <target.desc>
Tyrosine-protein kinase Srms (Homo sapiens)

>  <measured>
-0.93

$$$$
>  <compound.string>
Nc1nc(-c2cccc(Cl)c2)c(-c2ccc3ncccc3n2)s1

>  <target.desc>
Tyrosine-protein kinase Srms (Homo sapiens)

>  <measured>
-1.79

$$$$
>  <compound.string>
COc1ccc(-c2nn3ncccc3c2-c2ccnc(Nc3ccc4c(c3)OCCO4)n2)cc1

>  <target.desc>
Tyrosine-protein kinase Srms (Homo sapiens)

>  <measured>
0.02

$$$$
>  <compound.string>
Fc1ccc(-c2cc(-c3c[nH]nc3-c3ccccn3)ccn2)cc1

>  <target.desc>
Tyrosine-protein kinase Srms (Homo sapiens)

>  <measured>
-0.96

$$$$
>  <compound.string>
N#Cc1c(NC(=O)c2ccc(F)cc2)sc2c1CCCC2

>  <target.desc>
Tyrosine-protein kinase Srms (Homo sapiens);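 note: reported value is a mean of the inhibition readings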

>  <measured>
-1.11

$$$$
